B1: DYRK1B (parent)
chain: YQGPGTRRLQEVLGVQTGGPGGRR

# Variants of: B1
# Procedure Summary: protein stability index of a GFP-peptide fusion (GPS, HEK-293T) (PSI 1-6); higher = more stable;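 also: lentivirally expressed fusions sorted by FACS into six bins by GFP to DsRed ratio, PSI derived from sequencing read proportions per bin multiplied by bin number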
# Test Settings: c terminus: a fixed tail appended
Quick rule: protein stability index of at least 3 means Criterion met, below that means Criterion not met.

Solved entries (count: 5):
> print(dat)
               biopolymer.sequence       answer.label
1  YQGPGTRRLQEVLGVQTGGIGGRR [P20I]  Criterion not met
2   YYGPGTRRLQEVLGVQTGGPGGRR [Q2Y]      Criterion met
3  YQGPGTRRLQEVLLVQTGGPGGRR [G14L]  Criterion not met
4   YQGPGNRRLQEVLGVQTGGPGGRR [T6N]  Criterion not met
5   YQGPGTRRVQEVLGVQTGGPGGRR [L9V]      Criterion met

Given YQGPGTARLQEVLGVQTGGPGGRR [R7A] , state whether its protein stability index is at least 3.
Criterion met

Test whether the variant YQGPGTRELQEVLGVQTGGPGGRR [R8E] records protein stability index of 3 or higher.
Criterion met

Is reported protein stability index greater than or equal to 3 here: YDGPGTRRLQEVLGVQTGGPGGRR [Q2D]
Criterion met
